- measurement target: human B1R receptor (hB1R) (Homo sapiens, UniProt P46663)
- Construct: expressed in transfected cells; host or cells: CHO K1 cells, stably transfected
- Sequence (P46663 whole entry): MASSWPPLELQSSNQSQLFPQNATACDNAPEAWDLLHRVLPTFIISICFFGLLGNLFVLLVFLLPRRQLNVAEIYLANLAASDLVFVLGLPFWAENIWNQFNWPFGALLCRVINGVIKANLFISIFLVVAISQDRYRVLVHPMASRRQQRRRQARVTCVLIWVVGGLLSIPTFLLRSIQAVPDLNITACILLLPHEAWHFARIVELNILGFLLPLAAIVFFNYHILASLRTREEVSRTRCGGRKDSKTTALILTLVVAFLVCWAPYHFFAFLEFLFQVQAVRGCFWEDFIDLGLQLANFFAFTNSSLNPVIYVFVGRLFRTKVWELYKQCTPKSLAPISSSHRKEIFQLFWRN
- run description: FLIPR Ca2+ functional study on bradykinin receptor 1, hB1R cells (CHO K1)
- Type: cell-based
- measurement parameters: CHO-K1, 10 μM test substance; CHO K1 cells with human B1R; agonist Lys-Des-Arg9-bradykinin at EC80; read-out: B1R antagonism, human [10 μM] % inhibition
endpoint: inhibition at 10 µM (%)

COc1cc(C)c(S(=O)(=O)N2CCCc3ccc(CC(=O)N4CCC5(CC4)CCN(c4ccncc4)CC5)cc32)c(C)c1 [Compound G-25]: 100
COc1ccc(S(=O)(=O)N2CCc3ccc(C(=O)N4CCC5(CC4)CCN(c4ccncc4)CC5)cc3C2)c2ccccc12 [Compound G-48]: 73
O=C(Cc1ccc2c(c1)N(S(=O)(=O)c1cccc3ccccc13)CCC2)N1CCC2(CC1)CCN(c1ccncc1)CC2 [Compound G-17]: 97
COc1cc(C)c(S(=O)(=O)N2CCCc3ccc(CC(=O)N4CCC5(CC4)CCN(c4ccncc4)C5)cc32)c(C)c1 [Compound G-09]: 96
O=C(Cc1ccc2c(c1)N(S(=O)(=O)c1ccccc1C(F)(F)F)CCC2)N1CCC2(CC1)CCN(c1ccncc1)CC2 [Compound G-16]: 98
O=C(/C=C/c1ccccc1Cl)N1CCc2ccc(C(=O)N3CCC4(CC3)CCN(c3ccncc3)CC4)cc2C1 [Compound G-41]: 99
COc1cc(C)c(S(=O)(=O)N2CCn3cnc(C(=O)N4CCC5(CC4)CCN(c4ccncc4)CC5)c3C2)c(C)c1 [Compound G-72]: 100
O=C(c1ccc2c(c1)CN(C(=O)C(c1ccccc1)c1ccccc1)CC2)N1CCC2(CC1)CCN(c1ccncc1)CC2 [Compound G-49]: 99
